measuredOn: SCD5 (Homo sapiens)
Construct: host or cells: S. cerevisiae ole1Δ strain (W303 pdr1Δ pdr3Δ background), plasmid pRS316 with TDH3 promoter and CYC1 terminator
testMethodNotes: Growth inhibition of humanized yeast strain expressing SCD5 as sole desaturase
Type: cell-based
settings: humanized yeast strain, 40 h
readoutLabel: pIC50
Reminder that pIC50 means the negative base-10 logarithm of the concentration expressed in mol/L.

// worked examples, pIC50 included
>>> reportedresult("CC(C)(C)OC(=O)N1CCC(c2cc(-c3ccc4cnn(C5COC5)c4c3)on2)CC1 [Compound 1026]")
6.70
>>> reportedresult("CC(C)(C)OC(=O)N1CCC(c2noc(-c3ccc4oc(=O)n(C5COC5)c4c3)n2)CC1 [Compound 1005]")
8.00
>>> reportedresult("CC(=O)N1CC(n2cc3ccc(-c4nc(N5CCN(C(=O)OC(C)(C)C)CC5)no4)cc3n2)C1 [Compound 914]")
5.21
>>> reportedresult("CC(C)(C(=O)N1CCC(c2noc(-c3ccnc(C4CCOC4)c3)n2)CC1)C(F)(F)F (centres unmarked) [Compound 1175]")
6.68
>>> reportedresult("CC(C)(C)OC(=O)N1CCC(c2noc(-c3cncc(C4CCOC4)c3)n2)CC1 (centres unmarked) [Compound 1190]")
7.22

### Prompt Notebook: pull reported pIC50 for SCD5 (Homo sapiens), entry CC1(CC(=O)N2CCC(c3nc(-c4ccc5cnn(C6COC6)c5c4)ns3)CC2)CC1 [Compound 801]
### Response 6.44

### Prompt Same question, CC(C)(C)OC(=O)N1CCC(c2nc(-c3ccc4cnn([C@H]5CCOC5)c4c3)no2)CC1 [Compound 791] this time
### Response 8.00

----------
Parameter: pIC50. Scope: all listed entries.
measuredOn: SCD5 (Homo sapiens, UniProt Q86SK9)
Construct: host or cells: S. cerevisiae ole1Δ strain (W303 pdr1Δ pdr3Δ background), plasmid pRS316 with TDH3 promoter and CYC1 terminator
Sequence (Q86SK9 whole entry): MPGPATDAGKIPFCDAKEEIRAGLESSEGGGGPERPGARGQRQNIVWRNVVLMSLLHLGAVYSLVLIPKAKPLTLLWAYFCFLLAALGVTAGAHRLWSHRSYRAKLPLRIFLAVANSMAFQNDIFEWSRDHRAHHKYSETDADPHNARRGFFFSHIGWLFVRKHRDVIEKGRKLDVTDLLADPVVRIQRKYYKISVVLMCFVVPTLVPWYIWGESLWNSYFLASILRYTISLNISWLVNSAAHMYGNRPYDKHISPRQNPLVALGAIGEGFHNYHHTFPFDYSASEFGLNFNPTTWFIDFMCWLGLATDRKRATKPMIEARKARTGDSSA
testMethodNotes: Growth inhibition of humanized yeast strain expressing SCD5 as sole desaturase
Assay type: cell-based
settings: humanized yeast strain expressing SCD5
pIC50: −log10 of the molar value.

Worked examples, 2 compounds total:
>>> reportedresult("Cc1nn(C)c2cc(-c3noc(C4CCN(C(=O)COc5ccccc5)CC4)n3)ccc12 [Compound 266]")
"< 4.35"
>>> reportedresult("Cc1nn(C2CC2)c2cc(-c3noc(C4CCN(C(=O)CNC(=O)c5ccccc5)CC4)n3)ccc12 [Compound 286]")
"< 4.35"

### Prompt Return pIC50 measured with SCD5 (Homo sapiens, UniProt Q86SK9) given this compound: COc1cccc(-c2noc(C3CC(=O)N(c4ccc(C)c(C)c4)C3)n2)c1 (stereo not shown) [Compound 490]
### Response 4.45

### Prompt Please do the same for CC(C)c1ccc(C(=O)N2CCC(c3noc(-c4cccc(F)c4)n3)CC2)cc1 [Compound 52] as well.
### Response < 4.35

----------
measuredOn: SCD5 (Homo sapiens, UniProt Q86SK9)
Construct: host or cells: S. cerevisiae ole1Δ strain (W303 pdr1Δ pdr3Δ background), plasmid pRS316 with TDH3 promoter and CYC1 terminator
testMethodNotes: Growth inhibition of humanized yeast strain expressing SCD5 as sole desaturase
Format: cell-based
settings: humanized yeast strain, 40 h
readoutLabel: pIC50
Scale: pIC50 equals -log10([C]), with [C] in mol/L.

Example entries and their recorded answers appear below.
>>> reportedresult("O=C(N1CC(c2noc(-c3ccc4cnn(C5COC5)c4c3)n2)C1)C(F)(F)F")
5.54
>>> reportedresult("COC(=O)N1CCCC(c2noc(-c3ccc4cnn(C5COC5)c4c3)n2)CC1 (stereo not shown)")
4.38

// next entry
### Prompt Consider the molecule CC(C)(C)OC(=O)N1CCC(c2ccc(-c3ccc4cnn(C5COC5)c4c3)cc2)CC1 and give its measured pIC50.
### Response 5.82

----------
System: yeast strains expressing the human ApoE4
testMethodNotes: Yeast ApoE4 toxicity rescue assay (OD600 growth)
settings: 24 h, read-out: ApoE4 Emax
Please note: Emax exactly at 800% is Not satisfied. Only values below 800% get Satisfied.

# count of solved cases: 5
>>> assignedlabel("COc1ccc(-c2nsc(C3CCN(C(=O)CNC(=O)c4ccccc4)CC3)n2)cc1OC")
"Not satisfied"
>>> assignedlabel("Cc1cccc(-c2nc(C3CCN(C(=O)[C@H]4CC(=O)N(c5ccc(C)c(C)c5)C4)CC3)no2)c1 (single isomer, unassigned)")
"Satisfied"
>>> assignedlabel("CCOc1ccc(-c2noc(C3CCN(C(=O)CNC(=O)c4ccccc4)CC3)n2)cc1Br")
"Satisfied"
>>> assignedlabel("O=C(NCC(=O)N1CCC(c2nc(-c3ccccc3F)no2)CC1)c1ccccc1")
"Satisfied"
>>> assignedlabel("Cc1nn(C)c2cc(-c3noc(N4CCN(C(=O)C5CC(=O)N(c6ccccc6)C5)CC4)n3)ccc12 (stereo not shown)")
"Not satisfied"

Read the next record carefully.
### Prompt A record lists COc1ccc(-c2noc(C3CCN(C(=O)Cc4cncc(C)n4)CC3)n2)cc1OC . Is its Emax below 800%?
### Response Satisfied

----------
measuredOn: SCD1 (Homo sapiens, UniProt O00767)
Construct: host or cells: S. cerevisiae ole1Δ strain (W303 pdr1Δ pdr3Δ background), plasmid pRS316 with TDH3 promoter and CYC1 terminator
Sequence (O00767 whole entry): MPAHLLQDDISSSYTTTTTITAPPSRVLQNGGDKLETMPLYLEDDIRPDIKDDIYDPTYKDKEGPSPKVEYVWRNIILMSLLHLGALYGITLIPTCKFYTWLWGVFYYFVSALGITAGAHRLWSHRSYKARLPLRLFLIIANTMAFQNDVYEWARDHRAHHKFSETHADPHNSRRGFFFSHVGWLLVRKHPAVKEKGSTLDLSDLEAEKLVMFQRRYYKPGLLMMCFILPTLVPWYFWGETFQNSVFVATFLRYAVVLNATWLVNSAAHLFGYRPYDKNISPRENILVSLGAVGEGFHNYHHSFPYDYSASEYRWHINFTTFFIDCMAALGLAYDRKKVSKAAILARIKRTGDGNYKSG
testMethodNotes: Growth inhibition of humanized yeast strain expressing SCD1 as sole desaturase
Format: cell-based
settings: humanized yeast strain, 40 h
Method: Strain oleΔ (yeast ole1 deletion mutant) was constructed by deleting OLE1 with NAT-MX6 in BY4741, amplifying the deletion cassette from the genomic DNA of the resulting strain with primers flanking the ORF by 1000 bp upstream and downstream, transforming the resulting deletion cassette into W303 pdr1Δ pdr3Δ, and plating transformants on YPD media containing G418 (200 μg/mL) and nourseothricin ([…]) with 0.01% TWEEN®-20 and 0.5 mM oleic and palmitoleic acids. […]
readoutLabel: IC50

>>> reportedresult("CC(C)n1ccc2ccc(-c3nc(C4CCN(C(=O)OC(C)(C)C)CC4)no3)cc21 [Compound 1048]")
"> 45 µM"
>>> reportedresult("Cc1nn(C)c2cc(-c3nc(C4CCN(C(=O)OC5CCC5)CC4)no3)ccc12 [Compound 923]")
"> 45 µM"
>>> reportedresult("C[C@H]1C[C@H](c2noc(-c3ccc4cnn(C5COC5)c4c3)n2)CCN1C(=O)C1(F)CC1 [Compound 1053]")
"> 45 µM"

### Prompt Param item = CCC(=O)N1CCC(c2cc(-c3cc4c(cn3)cnn4C3COC3)no2)CC1 [Compound 1147] ; retrieve measured IC50.
### Response > 45 µM

### Prompt What about COC(=O)N1CCC(c2noc(-c3ccc4cnn([C@@H]5CCOC5)c4c3)n2)CC1 [Compound 877] ?
### Response > 45 µM

### Prompt Another molecule to check: O=C1CC(n2ncc3ccc(-c4nc(N5CCn6c(Cl)cnc6C5)no4)cc32)C1 [Compound 953]
### Response > 45 µM

----------
measuredOn: SCD5 (Homo sapiens)
Construct: host or cells: S. cerevisiae ole1Δ strain (W303 pdr1Δ pdr3Δ background), plasmid pRS316 with TDH3 promoter and CYC1 terminator
testMethodNotes: Growth inhibition of humanized yeast strain expressing SCD5 as sole desaturase
Assay type: cell-based
settings: yeast strain expressing human SCD5 as sole desaturase; Table 8
Description: Strain oleΔ (yeast ole1 deletion mutant) was constructed by deleting OLE1 with NAT-MX6 in BY4741, amplifying the deletion cassette from the genomic DNA of the resulting strain with primers flanking the ORF by 1000 bp upstream and downstream, transforming the resulting deletion cassette into W303 pdr1Δ pdr3Δ, and plating transformants on YPD media containing G418 (200 μg/mL) and nourseothricin ([…]) with 0.01% TWEEN®-20 and 0.5 mM oleic and palmitoleic acids. […]
Below, each entry is listed alongside its reported IC50.
Output spec: scalar in nM, unitless text.

Worked examples follow.
>>> reportedresult("COC(=O)N1CCC(c2noc(-c3ccnc(-c4cnn(C)c4)c3)n2)CC1")
11000
>>> reportedresult("CC(C)(C)OC(=O)N1CCC(c2noc(-c3ccnc(-c4cnoc4)c3)n2)CC1")
60
>>> reportedresult("CC(C)C(=O)N1CCC(c2noc(-c3ccc(F)c(N4CCOC5(CC5)C4)c3)n2)CC1")
900
>>> reportedresult("CC(C)(C)OC(=O)N1CCN(c2cc(-c3ccc4cnn(C5COC5)c4n3)on2)CC1")
1950
>>> reportedresult("CCC(=O)N1CCC(c2noc(-c3cc(C4CCOC4)ccn3)n2)CC1 (centres unmarked)")
6990

### Prompt Requested field: IC50. Item: O=C(C1CC1)N1CCC(c2noc(-c3ccnc(O[C@@H]4CCOC4)c3)n2)CC1
### Response 1880

### Prompt Note, next up: CC(C)(C)OC(=O)N1CCC(c2noc(-c3cnnc(C4CCOC4)c3)n2)CC1 (centres unmarked)
### Response 490

### Prompt Ok, now COC(=O)C(O)Cn1ncc2ccc(-c3nc(C4CCN(C(=O)OC(C)(C)C)CC4)no3)cc21 (centres unmarked)
### Response 760
